This collection of values is drawn from PubChem BioAssay (NCI).

System: SK-MEL-5 melanoma
Experiment: NCI tumour cell line growth inhibition, 48 h

>  <Compound>
CCC1c2[nH]c3ccccc3c2C[C@H]2C(=O)NC(COC(C)(C)C)C(=O)N12 (stereo partly specified)

>  <TGI>
93.3 µM

$$$$
>  <Compound>
COc1cccc(OC)c1/C=C1\OC(=O)c2cccc(OC)c21

>  <TGI>
> 100 µM

$$$$
>  <Compound>
C[C@]12CCC(=O)C=C1CC[C@@H]1C2CC[C@]2(C)c3nn(-c4ccc(F)cc4)nc3CC12 (stereo partly specified)

>  <TGI>
> 100 µM

$$$$
>  <Compound>
CCCCCC(C[N+]1(C)CCOCC1)C(=O)/C=C/c1ccccc1 (stereo unspecified)

>  <TGI>
28.1 µM

$$$$
>  <Compound>
COc1ccc(CCNC2=CC(=O)c3ncccc3C2=O)cc1OC

>  <TGI>
0.793 µM

$$$$
>  <Compound>
N#CC(C#N)=c1[nH]c2cccc3c2-c2c(cccc2c3=C(C#N)C#N)[nH]1

>  <TGI>
> 100 µM

$$$$
>  <Compound>
C/C(=C1/CCCC2(N=NCC2c2ccccc2)C1=O)c1ccccc1 (stereo unspecified)

>  <TGI>
25.3 µM

$$$$
>  <Compound>
COc1ccc2c(c1C)C(=O)C(O)(CC=C(C)C)O2 (stereo unspecified)

>  <TGI>
> 100 µM

$$$$
>  <Compound>
CN(C)C(=O)OCOC(=O)N(C)C

>  <TGI>
> 100 µM

$$$$
>  <Compound>
C=CCN1C[C@H](C)N([C@H](c2ccc(C(=O)N(CC)CCO)cc2)c2cccc(OC)c2)C[C@H]1C

>  <TGI>
> 100 µM

$$$$
>  <Compound>
COc1cc2c(cc1OCc1ccccc1)CNCC2

>  <TGI>
> 100 µM

$$$$
